test: PK model from phase 1 trial in healthy male adults (plasma concentration); type: in vivo, human; conditions: male, human, plasma, oral, × (1 + (BW − 63) × 0.0172), BW body weight kg, read-out: V2/F (volume of distribution of the central compartment), mean
propertyLabel: Vd/F (L)

> print(dat)
                                   molecule  propertylabel  testresult
1  CCCCCCO[C@@H](C)c1cccc(-c2csc(NC(=O)c3cc(Cl)c(/C=C(\C)C(=O)O)c(Cl)c3)n2)c1OC [lusutrombopag]           Vd/F        15.9

Where these numbers come from: patent US10085973B2
